# Measured On: Inadl_8, Q8NI35
# Sequence (Q8NI35 1425-1530): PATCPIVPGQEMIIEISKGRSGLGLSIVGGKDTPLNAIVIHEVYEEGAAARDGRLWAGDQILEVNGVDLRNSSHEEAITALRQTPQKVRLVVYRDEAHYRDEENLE
# Method Description: holdup assay
# Design: key: below the threshold = too weak to quantify, mostly under pKd 3.1 to 4
# Experimental Context: plain residues with an end cap or a label only (N-terminal biotin on a linker: ahx)
Param threshold (4) applies to pKd; output yes when value >= threshold, no when value < threshold.

Binder: TVICWPGSLV [LNX2, Q8N448]
Group: yes

Binder: GYDWGPATDL [TJP3, O95049]
Group: no

Binder: ESLLLGPSNF [SHROOM4, Q9ULL8]
Group: no

Binder: HNAFLSVTTV [PDZRN4, Q6ZMN7]
Group: no
